# Tgt: purified class A, C and D enzymes (β-lactamases) (Klebsiella pneumoniae, UniProt Q6XEC0)
# Experiment description: biochemical
# Format: biochemical
# Measurement context: purified OXA-48; nitrocefin (NCF) as reporter substrate
Measured parameter: Ki (OXA-48, NCF), uM

>>> result("O=C([O-])c1c(OCC#CCO)ccc2c1O[B-](O)(O)CC2.[Na+].[Na+]")
"X (X = Ki ≤ 0.1 μM)"
>>> result("O=C([O-])c1c(OCC2CC2)ccc2c1O[B-](O)(O)CC2.[Na+].[Na+]")
"X (X = Ki ≤ 0.1 μM)"
>>> result("O=C([O-])c1c(CSc2nncs2)ccc2c1O[B-](O)(O)CC2.[Na+].[Na+]")
"X (X = Ki ≤ 0.1 μM)"
>>> result("NCCCSCc1ccc2c(c1C(=O)[O-])O[B-](O)(O)CC2.[Na+].[Na+]")
"X (X = Ki ≤ 0.1 μM)"
>>> result("O=C([O-])c1cncc2c1O[B-](O)(O)CC2.[Na+].[Na+]")
"X (X = Ki ≤ 0.1 μM)"
>>> result("O=C([O-])c1c(OCC(F)F)ccc2c1O[B-](O)(O)CC2.[Na+].[Na+]")
"X (X = Ki ≤ 0.1 μM)"
>>> result("O=C([O-])c1c(CSC2CNC2)ccc2c1O[B-](O)(O)CC2.[Na+].[Na+]")
"X (X = Ki ≤ 0.1 μM)"
>>> result("O=C(O)c1c(F)ccc2c1OB(O)COC2")
"X (X = Ki ≤ 0.1 μM)"
>>> result("COc1ccc2c(c1C(=O)[O-])O[B-](O)(O)[C@@H](CCO)C2.[Na+].[Na+]")
"X (X = Ki ≤ 0.1 μM)"
>>> result("COCC#CCOc1ccc2c(c1C(=O)[O-])O[B-](O)(O)CC2.[Na+].[Na+]")
"X (X = Ki ≤ 0.1 μM)"

Query string: What does the record list as Ki (OXA-48, NCF), uM for "O=C(O)c1cccc2c1OB(O)CC2" ?
Result string: X (X = Ki ≤ 0.1 μM)

Query string: Try the compound "CCOc1ccc2c(c1C(=O)[O-])O[B-](O)(O)CC2.[Na+].[Na+]"
Result string: X (X = Ki ≤ 0.1 μM)

Query string: Try the compound "O=C([O-])c1c(OCC#CCN2CCC2)ccc2c1O[B-](O)(O)CC2.[Na+].[Na+]"
Result string: X (X = Ki ≤ 0.1 μM)

Query string: Try the compound "O=C([O-])c1c(OCc2ccncc2)ccc2c1O[B-](O)(O)CC2.[Na+].[Na+]"
Result string: X (X = Ki ≤ 0.1 μM)

Query string: Try the compound C[S+]([O-])c1ccc2c(c1C(=O)[O-])O[B-](O)(O)CC2.[Na+].[Na+] (centres unmarked)
Result string: X (X = Ki ≤ 0.1 μM)

Query string: Try the compound "[2H]C1([2H])Cc2ccc(OC)c(C(=O)[O-])c2O[B-]1(O)O.[Na+].[Na+]"
Result string: X (X = Ki ≤ 0.1 μM)

Query string: Try the compound "O=C([O-])c1cc(F)cc2c1O[B-](O)(O)CC2.[Na+].[Na+]"
Result string: X (X = Ki ≤ 0.1 μM)

FYI, the data here is from patent US10618918B2.
